testedTarget: T1, leptin receptor (Mus musculus, UniProt P48356)
T1 chain: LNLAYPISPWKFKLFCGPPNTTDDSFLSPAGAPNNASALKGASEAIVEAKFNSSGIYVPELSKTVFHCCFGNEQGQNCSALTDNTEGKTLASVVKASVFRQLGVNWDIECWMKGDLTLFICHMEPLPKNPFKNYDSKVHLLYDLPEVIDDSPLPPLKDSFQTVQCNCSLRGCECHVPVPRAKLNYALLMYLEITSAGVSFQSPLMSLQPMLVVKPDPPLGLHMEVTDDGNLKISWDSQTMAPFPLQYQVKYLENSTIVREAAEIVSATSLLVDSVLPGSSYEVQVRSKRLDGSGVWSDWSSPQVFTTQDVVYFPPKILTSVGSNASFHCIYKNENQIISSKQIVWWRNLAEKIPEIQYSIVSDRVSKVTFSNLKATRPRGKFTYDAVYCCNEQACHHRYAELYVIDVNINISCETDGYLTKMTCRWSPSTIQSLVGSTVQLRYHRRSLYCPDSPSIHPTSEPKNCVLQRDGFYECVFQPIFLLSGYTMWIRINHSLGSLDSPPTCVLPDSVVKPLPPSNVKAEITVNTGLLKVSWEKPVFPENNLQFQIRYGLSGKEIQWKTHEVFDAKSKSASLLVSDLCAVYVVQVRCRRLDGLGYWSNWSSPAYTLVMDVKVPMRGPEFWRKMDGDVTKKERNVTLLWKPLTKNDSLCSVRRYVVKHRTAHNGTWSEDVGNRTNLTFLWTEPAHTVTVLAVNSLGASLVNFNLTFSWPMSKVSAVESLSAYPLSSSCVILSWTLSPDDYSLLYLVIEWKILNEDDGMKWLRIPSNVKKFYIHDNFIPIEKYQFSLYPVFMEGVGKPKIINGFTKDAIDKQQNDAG
assayNotes: SPR
Ends that are not written are not given here.
Reported Kd values for a set of binders
Just the number please, in nM, no unit attached.

binder: YQQVLTSLPSQNVLQIANDLENLRDLLHLLGGGGRRRRRRRRRLLLC [Lep9R3LC]
observed: 1380

Attention now turns to another entry.
Query: I am curious: what Kd value has been reported for YQQVLTSLPSQNVLQIANDLENLRDLLHLLGGGGRRRRRRRRRLLLC (also: disulfide-linked dimer via C-terminal Cys) [diLep9R3LC] ?
Reply: 462
